Multiple publications report IC50 for Dihydroorotate dehydrogenase (quinone), mitochondrial (Rattus norvegicus, UniProt Q63707); what follows is a combined list.
Observable: IC50 (µM)

I: Cc1cc(Cl)ccc1NC(=O)/C(C#N)=C(\O)C1CC1
II: CC/C(O)=C(\C#N)C(=O)Nc1ccc(-c2ccc(F)cc2)c(C(=O)OC)c1
III: N#CC(C(=O)Nc1ccc([N+](=O)[O-])cc1)=[N+]([O-])[O-]
Request: Ordering: ascending IC50. State the ranking by listing the labels in the requested order.
Result: II, I, III

====

Multiple publications report pIC50 for Dihydroorotate dehydrogenase (quinone), mitochondrial (Rattus norvegicus); what follows is a combined list.
pIC50: −log10 of the molar value.
Observable: pIC50

[
  {
    "Smiles Data": "N#C/C(C(=O)Nc1ccc(-c2nc(C(F)(F)F)cs2)cc1)=C(/O)C1CC1",
    "Value Reported": 5.52
  }
]

A: C#CCOc1cccc(-c2ccc(NC(=O)C3=C(C(=O)O)CCC3)c(F)c2)c1
B: Cc1cc(NC(=O)/C(C#N)=C(\O)C2CC2)ccc1SC(F)(F)F
C: N#C/C(C(=O)Nc1ccccc1Cl)=C(/O)C1CC1
D: O=C(O)C1=C(C(=O)Nc2c(F)cc(-c3cccc(OC(F)(F)F)c3)cc2F)CCC1
Request: Please put the entries in order of rising pIC50. State the ranking by listing the labels in the requested order.
Result: C, A, D, B
(C: 4.88, A: 5.22, D: 6.30, B: 7.96)
